# System: human monoclonal antibody CRJA
# Format: binding
Labelling: Binding of CRJA (10 μg/ml) to looped/cyclic peptide (PEPSCAN-ELISA signal) reported below 90 becomes condition met; at or above becomes condition not met.

Challenge: Does the reported Binding of CRJA (10 μg/ml) to looped/cyclic peptide (PEPSCAN-ELISA signal) of "EGCTNLSGFSYMELK" stay below 90?
Response given: condition met

Challenge: Does the reported Binding of CRJA (10 μg/ml) to looped/cyclic peptide (PEPSCAN-ELISA signal) of "DIHHLSCPNNLVVED" stay below 90?
Response given: condition met

Challenge: Does the reported Binding of CRJA (10 μg/ml) to looped/cyclic peptide (PEPSCAN-ELISA signal) of "SGFSYMELKVGYILA" stay below 90?
Response given: condition met

Challenge: Does the reported Binding of CRJA (10 μg/ml) to looped/cyclic peptide (PEPSCAN-ELISA signal) of "EESLHNPYPDYRWLR" stay below 90?
Response given: condition not met

Challenge: Does the reported Binding of CRJA (10 μg/ml) to looped/cyclic peptide (PEPSCAN-ELISA signal) of "PRYEESLHNPYPDYR" stay below 90?
Response given: condition not met

Challenge: Does the reported Binding of CRJA (10 μg/ml) to looped/cyclic peptide (PEPSCAN-ELISA signal) of "VGYVTTTFKRKHFRP" stay below 90?
Response given: condition not met

Challenge: Does the reported Binding of CRJA (10 μg/ml) to looped/cyclic peptide (PEPSCAN-ELISA signal) of "IISPSVADLDPYDRS" stay below 90?
Response given: condition not met

Challenge: Does the reported Binding of CRJA (10 μg/ml) to looped/cyclic peptide (PEPSCAN-ELISA signal) of "GVAVSSTYCSTNHDY" stay below 90?
Response given: condition not met

Challenge: Does the reported Binding of CRJA (10 μg/ml) to looped/cyclic peptide (PEPSCAN-ELISA signal) of "YTIWMPENPRLGMSC" stay below 90?
Response given: condition not met

Challenge: Does the reported Binding of CRJA (10 μg/ml) to looped/cyclic peptide (PEPSCAN-ELISA signal) of "WMPENPRLGMSCDIF" stay below 90?
Response given: condition not met

Challenge: Does the reported Binding of CRJA (10 μg/ml) to looped/cyclic peptide (PEPSCAN-ELISA signal) of "ENPRLGMSCDIFTNS" stay below 90?
Response given: condition not met

Challenge: Does the reported Binding of CRJA (10 μg/ml) to looped/cyclic peptide (PEPSCAN-ELISA signal) of "LHNPYPDYRWLRTVK" stay below 90?
Response given: condition not met

Challenge: Does the reported Binding of CRJA (10 μg/ml) to looped/cyclic peptide (PEPSCAN-ELISA signal) of "DRSLHSRVFPSGKCS" stay below 90?
Response given: condition not met

Challenge: Does the reported Binding of CRJA (10 μg/ml) to looped/cyclic peptide (PEPSCAN-ELISA signal) of "LKVGYILAIKMNGFT" stay below 90?
Response given: condition met

Challenge: Does the reported Binding of CRJA (10 μg/ml) to looped/cyclic peptide (PEPSCAN-ELISA signal) of "GYVTTTFKRKHFRPT" stay below 90?
Response given: condition not met

Challenge: Does the reported Binding of CRJA (10 μg/ml) to looped/cyclic peptide (PEPSCAN-ELISA signal) of "GKCSGVAVSSTYCST" stay below 90?
Response given: condition not met

Challenge: Does the reported Binding of CRJA (10 μg/ml) to looped/cyclic peptide (PEPSCAN-ELISA signal) of "SCDIFTNSRGKRASK" stay below 90?
Response given: condition met

Challenge: Does the reported Binding of CRJA (10 μg/ml) to looped/cyclic peptide (PEPSCAN-ELISA signal) of "ENYTNFVGYVTTTFK" stay below 90?
Response given: condition met

Challenge: Does the reported Binding of CRJA (10 μg/ml) to looped/cyclic peptide (PEPSCAN-ELISA signal) of "PYDRSLHSRVFPSGK" stay below 90?
Response given: condition not met

Challenge: Does the reported Binding of CRJA (10 μg/ml) to looped/cyclic peptide (PEPSCAN-ELISA signal) of "SVADLDPYDRSLHSR" stay below 90?
Response given: condition met

Challenge: Does the reported Binding of CRJA (10 μg/ml) to looped/cyclic peptide (PEPSCAN-ELISA signal) of "PTPDACRAAYNWKMA" stay below 90?
Response given: condition not met

Challenge: Does the reported Binding of CRJA (10 μg/ml) to looped/cyclic peptide (PEPSCAN-ELISA signal) of "LVVEDEGCTNLSGFS" stay below 90?
Response given: condition not met

Challenge: Does the reported Binding of CRJA (10 μg/ml) to looped/cyclic peptide (PEPSCAN-ELISA signal) of "FSYMELKVGYILAIK" stay below 90?
Response given: condition not met

Challenge: Does the reported Binding of CRJA (10 μg/ml) to looped/cyclic peptide (PEPSCAN-ELISA signal) of "KCSGVAVSSTYCSTN" stay below 90?
Response given: condition met

Challenge: Does the reported Binding of CRJA (10 μg/ml) to looped/cyclic peptide (PEPSCAN-ELISA signal) of "RSLHSRVFPSGKCSG" stay below 90?
Response given: condition not met

Challenge: Does the reported Binding of CRJA (10 μg/ml) to looped/cyclic peptide (PEPSCAN-ELISA signal) of "ACRAAYNWKMAGDPR" stay below 90?
Response given: condition not met

Challenge: Does the reported Binding of CRJA (10 μg/ml) to looped/cyclic peptide (PEPSCAN-ELISA signal) of "KFPIYTILDKLGPWS" stay below 90?
Response given: condition met

Challenge: Does the reported Binding of CRJA (10 μg/ml) to looped/cyclic peptide (PEPSCAN-ELISA signal) of "LRTVKTTKESLVIIS" stay below 90?
Response given: condition met

Challenge: Does the reported Binding of CRJA (10 μg/ml) to looped/cyclic peptide (PEPSCAN-ELISA signal) of "GFSYMELKVGYILAI" stay below 90?
Response given: condition met

Challenge: Does the reported Binding of CRJA (10 μg/ml) to looped/cyclic peptide (PEPSCAN-ELISA signal) of "CPNNLVVEDEGCTNL" stay below 90?
Response given: condition met

Challenge: Does the reported Binding of CRJA (10 μg/ml) to looped/cyclic peptide (PEPSCAN-ELISA signal) of "YNWKMAGDPRYEESL" stay below 90?
Response given: condition not met

Challenge: Does the reported Binding of CRJA (10 μg/ml) to looped/cyclic peptide (PEPSCAN-ELISA signal) of "ILAIKMNGFTCTGVV" stay below 90?
Response given: condition met

Challenge: Does the reported Binding of CRJA (10 μg/ml) to looped/cyclic peptide (PEPSCAN-ELISA signal) of "IWMPENPRLGMSCDI" stay below 90?
Response given: condition not met

Challenge: Does the reported Binding of CRJA (10 μg/ml) to looped/cyclic peptide (PEPSCAN-ELISA signal) of "IHHLSCPNNLVVEDE" stay below 90?
Response given: condition met

Challenge: Does the reported Binding of CRJA (10 μg/ml) to looped/cyclic peptide (PEPSCAN-ELISA signal) of "KTTKESLVIISPSVA" stay below 90?
Response given: condition not met

Challenge: Does the reported Binding of CRJA (10 μg/ml) to looped/cyclic peptide (PEPSCAN-ELISA signal) of "FKRKHFRPTPDACRA" stay below 90?
Response given: condition met

Challenge: Does the reported Binding of CRJA (10 μg/ml) to looped/cyclic peptide (PEPSCAN-ELISA signal) of "NHDYTIWMPENPRLG" stay below 90?
Response given: condition not met

Challenge: Does the reported Binding of CRJA (10 μg/ml) to looped/cyclic peptide (PEPSCAN-ELISA signal) of "KVGYILAIKMNGFTC" stay below 90?
Response given: condition met

Challenge: Does the reported Binding of CRJA (10 μg/ml) to looped/cyclic peptide (PEPSCAN-ELISA signal) of "TNHDYTIWMPENPRL" stay below 90?
Response given: condition met

Challenge: Does the reported Binding of CRJA (10 μg/ml) to looped/cyclic peptide (PEPSCAN-ELISA signal) of "FPIYTILDKLGPWSP" stay below 90?
Response given: condition met

Challenge: Does the reported Binding of CRJA (10 μg/ml) to looped/cyclic peptide (PEPSCAN-ELISA signal) of "RVFPSGKCSGVAVSS" stay below 90?
Response given: condition met

Challenge: Does the reported Binding of CRJA (10 μg/ml) to looped/cyclic peptide (PEPSCAN-ELISA signal) of "RKHFRPTPDACRAAY" stay below 90?
Response given: condition met

Challenge: Does the reported Binding of CRJA (10 μg/ml) to looped/cyclic peptide (PEPSCAN-ELISA signal) of "LDPYDRSLHSRVFPS" stay below 90?
Response given: condition not met

Challenge: Does the reported Binding of CRJA (10 μg/ml) to looped/cyclic peptide (PEPSCAN-ELISA signal) of "SPSVADLDPYDRSLH" stay below 90?
Response given: condition met

Challenge: Does the reported Binding of CRJA (10 μg/ml) to looped/cyclic peptide (PEPSCAN-ELISA signal) of "VVTEAENYTNFVGYV" stay below 90?
Response given: condition met

Challenge: Does the reported Binding of CRJA (10 μg/ml) to looped/cyclic peptide (PEPSCAN-ELISA signal) of "LDKLGPWSPIDIHHL" stay below 90?
Response given: condition met

Challenge: Does the reported Binding of CRJA (10 μg/ml) to looped/cyclic peptide (PEPSCAN-ELISA signal) of "AYNWKMAGDPRYEES" stay below 90?
Response given: condition met

Challenge: Does the reported Binding of CRJA (10 μg/ml) to looped/cyclic peptide (PEPSCAN-ELISA signal) of "AIKMNGFTCTGVVTE" stay below 90?
Response given: condition met

Challenge: Does the reported Binding of CRJA (10 μg/ml) to looped/cyclic peptide (PEPSCAN-ELISA signal) of "LGMSCDIFTNSRGKR" stay below 90?
Response given: condition not met

Challenge: Does the reported Binding of CRJA (10 μg/ml) to looped/cyclic peptide (PEPSCAN-ELISA signal) of "TGVVTEAENYTNFVG" stay below 90?
Response given: condition not met

Challenge: Does the reported Binding of CRJA (10 μg/ml) to looped/cyclic peptide (PEPSCAN-ELISA signal) of "EAENYTNFVGYVTTT" stay below 90?
Response given: condition met

Challenge: Does the reported Binding of CRJA (10 μg/ml) to looped/cyclic peptide (PEPSCAN-ELISA signal) of "DACRAAYNWKMAGDP" stay below 90?
Response given: condition not met

Challenge: Does the reported Binding of CRJA (10 μg/ml) to looped/cyclic peptide (PEPSCAN-ELISA signal) of "TYCSTNHDYTIWMPE" stay below 90?
Response given: condition not met

Challenge: Does the reported Binding of CRJA (10 μg/ml) to looped/cyclic peptide (PEPSCAN-ELISA signal) of "FRPTPDACRAAYNWK" stay below 90?
Response given: condition not met

Challenge: Does the reported Binding of CRJA (10 μg/ml) to looped/cyclic peptide (PEPSCAN-ELISA signal) of "PENPRLGMSCDIFTN" stay below 90?
Response given: condition met

Challenge: Does the reported Binding of CRJA (10 μg/ml) to looped/cyclic peptide (PEPSCAN-ELISA signal) of "ESLHNPYPDYRWLRT" stay below 90?
Response given: condition not met

Challenge: Does the reported Binding of CRJA (10 μg/ml) to looped/cyclic peptide (PEPSCAN-ELISA signal) of "VVEDEGCTNLSGFSY" stay below 90?
Response given: condition met

Challenge: Does the reported Binding of CRJA (10 μg/ml) to looped/cyclic peptide (PEPSCAN-ELISA signal) of "PIDIHHLSCPNNLVV" stay below 90?
Response given: condition met

Challenge: Does the reported Binding of CRJA (10 μg/ml) to looped/cyclic peptide (PEPSCAN-ELISA signal) of "YDRSLHSRVFPSGKC" stay below 90?
Response given: condition met

Challenge: Does the reported Binding of CRJA (10 μg/ml) to looped/cyclic peptide (PEPSCAN-ELISA signal) of "ILDKLGPWSPIDIHH" stay below 90?
Response given: condition met

Challenge: Does the reported Binding of CRJA (10 μg/ml) to looped/cyclic peptide (PEPSCAN-ELISA signal) of "HSRVFPSGKCSGVAV" stay below 90?
Response given: condition not met

Challenge: Does the reported Binding of CRJA (10 μg/ml) to looped/cyclic peptide (PEPSCAN-ELISA signal) of "HFRPTPDACRAAYNW" stay below 90?
Response given: condition met

Challenge: Does the reported Binding of CRJA (10 μg/ml) to looped/cyclic peptide (PEPSCAN-ELISA signal) of "MELKVGYILAIKMNG" stay below 90?
Response given: condition met

Where these numbers come from: patent US20060263802A1
